Reference source for all entries: PubChem BioAssay (NCI)

# Test system: K-562 leukemia
# Protocol description: NCI-60 one-dose screen, 48 h
# Condition label: 10 µM unless noted
This is part of a sample that, as a whole, favours compounds with a hit. Of some 83,000 tested, about 20% had one in any assay. Activity calls are given as the source filed them. How the source made its calls: active means growth percent below 10; inactive means the rest.
Parameter call: string, one of label 1 = active, label 0 = inactive

q: Can you look up the reported call for CCNC(=O)N1CCc2cc(OC)c(OCCc3ccc(OC)cc3)cc2C1c1ccc(Cl)cc1C (stereo not drawn) for me?
a: label 0

q: Can you look up the reported call for NC(N)=Nc1ccc(Oc2cccc(NC(N)=Nc3ccc(I)cc3F)c2)cc1 for me?
a: label 0

q: Can you look up the reported call for CN1CCN(Cc2ccc(NC(=O)c3cncc(C#Cc4cnc5ccc(N6CCN(C)CC6)nn45)c3)cc2C(F)(F)F)CC1 for me?
a: label 1
